Experiment: Solubility determination by solvent addition (visual assessment)
Assay type: physicochemical
Conditions: aqueous with cosolvent or surfactant or cyclodextrin, thermodynamic from solid; solvent Water/MeOH (20/80 v/v); read-out: Solubility
Protocol: Aliquots of various solvents were added to measured amounts of the anhydrous crystalline form of the compound of formula (I) at various temperatures with sonication or stirring. Solubilities were calculated based on the total solvent used to give a solution; actual solubilities may be greater because of the volume of solvent portions utilized or a slow rate of dissolution. […] If dissolution occurred at the first aliquot the value was reported as “>”.
Readout label: solubility

Please look up its solubility: "C[C@H]1CCCN(Cc2cc(C(F)(F)F)c3cn(-c4cccc([C@H](c5nncn5C)C5CCC5)c4)c(=O)n3c2)C1" > 29 mg/mL

----------
experiment: Solubility determination by solvent addition (visual assessment); assay type: physicochemical; settings: organic solvent or mixture, thermodynamic from solid; solvent Toluene; read-out: Solubility
Readout label: solubility (mg/mL)
Number only, in mg/mL; omit the unit.

Please look up its solubility: "C[C@H]1CCCN(Cc2cc(C(F)(F)F)c3cn(-c4cccc([C@H](c5nncn5C)C5CCC5)c4)c(=O)n3c2)C1" 99

----------
assay: Solubility determination by solvent addition (visual assessment); format: physicochemical; conditions: organic solvent or mixture, thermodynamic from solid; solvent Acetone; read-out: Solubility
Readout label: solubility (mg/mL)
Number only, in mg/mL; omit the unit.

Please look up its solubility: "C[C@H]1CCCN(Cc2cc(C(F)(F)F)c3cn(-c4cccc([C@H](c5nncn5C)C5CCC5)c4)c(=O)n3c2)C1" 31

----------
assay: Solubility determination by solvent addition (visual assessment); assay type: physicochemical; conditions: organic solvent or mixture, thermodynamic from solid; solvent ACN; read-out: Solubility
Readout label: solubility

Please look up its solubility: "C[C@H]1CCCN(Cc2cc(C(F)(F)F)c3cn(-c4cccc([C@H](c5nncn5C)C5CCC5)c4)c(=O)n3c2)C1" 85 mg/mL

----------
Assay: Solubility determination by solvent addition (visual assessment)
Type: physicochemical
Settings: aqueous with cosolvent or surfactant or cyclodextrin, thermodynamic from solid; solvent Water/EtOH (50/50 v/v); read-out: Solubility
Protocol: Aliquots of various solvents were added to measured amounts of the anhydrous crystalline form of the compound of formula (I) at various temperatures with sonication or stirring. Solubilities were calculated based on the total solvent used to give a solution; actual solubilities may be greater because of the volume of solvent portions utilized or a slow rate of dissolution. […] If dissolution occurred at the first aliquot the value was reported as “>”.
Readout label: solubility (µg/mL)
Number only, in µg/mL; omit the unit.

Please look up its solubility: "C[C@H]1CCCN(Cc2cc(C(F)(F)F)c3cn(-c4cccc([C@H](c5nncn5C)C5CCC5)c4)c(=O)n3c2)C1" 9000

----------
assay: Solubility determination by solvent addition (visual assessment); type: physicochemical; settings: organic solvent or mixture, thermodynamic from solid; solvent EtOAc; read-out: Solubility
Readout label: solubility
Quick note: number first, unit second.

Please look up its solubility: "C[C@H]1CCCN(Cc2cc(C(F)(F)F)c3cn(-c4cccc([C@H](c5nncn5C)C5CCC5)c4)c(=O)n3c2)C1" 38 mg/mL

----------
experiment: Solubility determination by solvent addition (visual assessment); assay type: physicochemical; conditions: organic solvent or mixture, thermodynamic from solid; solvent IPA; read-out: Solubility
Readout label: solubility (mg/mL)
Number only, in mg/mL; omit the unit.

Please look up its solubility: "C[C@H]1CCCN(Cc2cc(C(F)(F)F)c3cn(-c4cccc([C@H](c5nncn5C)C5CCC5)c4)c(=O)n3c2)C1" 79

----------
test: Solubility determination by solvent addition (visual assessment); assay type: physicochemical; conditions: aqueous with cosolvent or surfactant or cyclodextrin, thermodynamic from solid; solvent Water/IPA (40/60 v/v); read-out: Solubility
Readout label: solubility

Please look up its solubility: "C[C@H]1CCCN(Cc2cc(C(F)(F)F)c3cn(-c4cccc([C@H](c5nncn5C)C5CCC5)c4)c(=O)n3c2)C1" > 37 mg/mL

----------
experiment: Solubility determination by solvent addition (visual assessment); format: physicochemical; details: organic solvent or mixture, thermodynamic from solid; solvent DIPE; read-out: Solubility
Readout label: solubility

Please look up its solubility: "C[C@H]1CCCN(Cc2cc(C(F)(F)F)c3cn(-c4cccc([C@H](c5nncn5C)C5CCC5)c4)c(=O)n3c2)C1" < 2000 µg/mL

----------
assay: Solubility determination by solvent addition (visual assessment); type: physicochemical; details: aqueous with cosolvent or surfactant or cyclodextrin, thermodynamic from solid; solvent Water/MeOH (60/40 v/v); read-out: Solubility
Readout label: solubility

Please look up its solubility: "C[C@H]1CCCN(Cc2cc(C(F)(F)F)c3cn(-c4cccc([C@H](c5nncn5C)C5CCC5)c4)c(=O)n3c2)C1" < 3000 µg/mL

----------
Assay: Solubility determination by solvent addition (visual assessment)
Type: physicochemical
Settings: organic solvent or mixture, thermodynamic from solid; solvent Heptane; read-out: Solubility
Description: Aliquots of various solvents were added to measured amounts of the anhydrous crystalline form of the compound of formula (I) at various temperatures with sonication or stirring. Solubilities were calculated based on the total solvent used to give a solution; actual solubilities may be greater because of the volume of solvent portions utilized or a slow rate of dissolution. […] If dissolution occurred at the first aliquot the value was reported as “>”.
Readout label: solubility

Please look up its solubility: "C[C@H]1CCCN(Cc2cc(C(F)(F)F)c3cn(-c4cccc([C@H](c5nncn5C)C5CCC5)c4)c(=O)n3c2)C1" < 1000 µg/mL

----------
test: Solubility determination by solvent addition (visual assessment); format: physicochemical; conditions: organic solvent or mixture, thermodynamic from solid; solvent MTBE; read-out: Solubility
Readout label: solubility
Quick note: number first, unit second.

Please look up its solubility: "C[C@H]1CCCN(Cc2cc(C(F)(F)F)c3cn(-c4cccc([C@H](c5nncn5C)C5CCC5)c4)c(=O)n3c2)C1" 4000 µg/mL

----------
Assay: Solubility determination by solvent addition (visual assessment)
Format: physicochemical
Settings: aqueous with cosolvent or surfactant or cyclodextrin, thermodynamic from solid; solvent Water/IPA (20/80 v/v); read-out: Solubility
Description: Aliquots of various solvents were added to measured amounts of the anhydrous crystalline form of the compound of formula (I) at various temperatures with sonication or stirring. Solubilities were calculated based on the total solvent used to give a solution; actual solubilities may be greater because of the volume of solvent portions utilized or a slow rate of dissolution. […] If dissolution occurred at the first aliquot the value was reported as “>”.
Readout label: solubility

Please look up its solubility: "C[C@H]1CCCN(Cc2cc(C(F)(F)F)c3cn(-c4cccc([C@H](c5nncn5C)C5CCC5)c4)c(=O)n3c2)C1" > 30 mg/mL

----------
test: Solubility determination by solvent addition (visual assessment); format: physicochemical; settings: thermodynamic from solid; water, 25° C., by solvent addition; read-out: aqueous solubility
Readout label: solubility

Please look up its solubility: "C[C@H]1CCCN(Cc2cc(C(F)(F)F)c3cn(-c4cccc([C@H](c5nncn5C)C5CCC5)c4)c(=O)n3c2)C1" > 111 mg/mL

----------
Assay: Solubility determination by solvent addition (visual assessment)
Type: physicochemical
Conditions: aqueous with cosolvent or surfactant or cyclodextrin, thermodynamic from solid; solvent Water/IPA (60/40 v/v); read-out: Solubility
Protocol: Aliquots of various solvents were added to measured amounts of the anhydrous crystalline form of the compound of formula (I) at various temperatures with sonication or stirring. Solubilities were calculated based on the total solvent used to give a solution; actual solubilities may be greater because of the volume of solvent portions utilized or a slow rate of dissolution. […] If dissolution occurred at the first aliquot the value was reported as “>”.
Readout label: solubility (µg/mL)
Number only, in µg/mL; omit the unit.

Please look up its solubility: "C[C@H]1CCCN(Cc2cc(C(F)(F)F)c3cn(-c4cccc([C@H](c5nncn5C)C5CCC5)c4)c(=O)n3c2)C1" 9000
